method.description: Half life in human liver microsomes at 0.1 uM in presence or absence of NADPH by LC-MS/MS analysis
Type: ADME, Microsome
measured.property: half-life at 0.1 µM (min)

Solved entries (count: 5):
N[C@@H](C(=O)N1CC(CNc2ccc(F)cc2)C2(C1)CN(c1cc(F)cc(F)c1)C2)c1ccc(O)cc1 (mixture of isomers) ... 25
O=C(Cc1cc[n+]([O-])cc1)N1CC(CNc2ccc(F)cc2)C2(C1)CN(c1cc(F)cc(F)c1)C2 (racemic) ... 150
C[C@H](C(=O)N1CC(CNc2ccc(F)cc2)C2(C1)CN(c1cc(F)cc(F)c1)C2)c1ccc(O)cc1 (mixture of isomers) ... 6
N#Cc1cc(CC(=O)N2CC(CNc3ccc(F)cc3)C3(C2)CN(c2cc(F)cc(F)c2)C3)ccc1O (racemic) ... 27
O=C([C@H](O)c1ccc(O)cc1)N1CC(CNc2ccc(F)cc2)C2(C1)CN(c1cc(F)cc(F)c1)C2 (mixture of isomers) ... 6.8

[P] O=C(Cc1ccc(O)c(Cl)c1)N1CC(CNc2ccc(F)cc2)C2(C1)CN(c1ccc(F)cc1)C2 (racemic)
[Q] O=C(CN1CCC(O)CC1)N1CC(CNc2ccc(F)cc2)C2(C1)CN(c1ccc(F)cc1)C2 (racemic)
[ask] Given the listed records, identify the one among P and Q with higher half-life at 0.1 µM. // output: label of the selected item
[reply] Q
(Q: 150 min, P: 22 min)

---

method.description: Half life in Balb/c mouse at 3 mg/kg, iv measured upto 24 hrs by LC-MS/MS analysis
Format: ADME, organism-based
condition.details: in vivo
measured.property: half-life (h)

O=C(Cc1ccc(O)cc1)N1CC(CNc2ccccc2)C2(C1)CN(c1ccc(F)cc1)C2 (stereo not drawn) ... 4
N[C@H](C(=O)N1CC(CNc2ccc(F)cc2)C2(C1)CN(c1cc(F)cc(F)c1)C2)c1ccc(O)cc1 (mixture of isomers; form 1) ... 8
Nc1ccc(C[C@@H](N)C(=O)N2CC(CNc3ccc(F)cc3)C3(C2)CN(c2cc(F)cc(F)c2)C3)cc1 (mixture of isomers) ... 5.7

---

method.description: Volume of distribution in Balb/c mouse at 3 mg/kg, iv measured upto 24 hrs by LC-MS/MS analysis
Format: ADME, organism-based
condition.details: in vivo
measured.property: Vd (L/kg)

Nc1ccc(C[C@@H](N)C(=O)N2CC(CNc3ccc(F)cc3)C3(C2)CN(c2cc(F)cc(F)c2)C3)cc1 (mixture of isomers) ... 20.7
O=C(Cc1ccc(O)cc1)N1CC(CNc2ccccc2)C2(C1)CN(c1ccc(F)cc1)C2 (stereo not drawn) ... 22
N[C@H](C(=O)N1CC(CNc2ccc(F)cc2)C2(C1)CN(c1cc(F)cc(F)c1)C2)c1ccc(O)cc1 (mixture of isomers; form 1) ... 23.5

---

method.description: Intrinsic clearance in Balb/c mouse at 3 mg/kg, iv measured upto 24 hrs by LC-MS/MS analysis
Assay type: ADME, organism-based
condition.details: in vivo
measured.property: CL (mL/min/kg)

Nc1ccc(C[C@@H](N)C(=O)N2CC(CNc3ccc(F)cc3)C3(C2)CN(c2cc(F)cc(F)c2)C3)cc1 (mixture of isomers) ... 2959

[I] CS(=O)(=O)c1ccc(-c2cnc(N)c(-c3ccc(C(F)(F)F)nc3)c2)cc1
[II] CC1(C)c2nc(-c3ccc(F)cc3)c(Nc3ccc(F)cc3)n2CCN1C(=O)CN [GANAPLACIDE]
[III] N[C@H](C(=O)N1CC(CNc2ccc(F)cc2)C2(C1)CN(c1cc(F)cc(F)c1)C2)c1ccc(O)cc1 (mixture of isomers; form 1)
[IV] O=C(Cc1ccc(O)cc1)N1CC(CNc2ccccc2)C2(C1)CN(c1ccc(F)cc1)C2 (stereo not given)
[ask] Could you please order the items by CL, going from the lowest number to the highest? Use the labels to give the ranking in the order requested.
[reply] I, II, III, IV
(I: 19 mL/min/kg, II: 548 mL/min/kg, III: 2155 mL/min/kg, IV: 5042 mL/min/kg)

---

method.description: Oral bioavailability in Balb/c mouse at 10 mg/kg measured upto 24 hrs by LC-MS/MS analysis
Format: ADME, organism-based
condition.details: in vivo
measured.property: bioavailability (%)

Nc1ccc(C[C@@H](N)C(=O)N2CC(CNc3ccc(F)cc3)C3(C2)CN(c2cc(F)cc(F)c2)C3)cc1 (mixture of isomers) ... 8

[A] O=C(Cc1ccc(O)cc1)N1CC(CNc2ccccc2)C2(C1)CN(c1ccc(F)cc1)C2 (stereo not given)
[B] CC1(C)c2nc(-c3ccc(F)cc3)c(Nc3ccc(F)cc3)n2CCN1C(=O)CN [GANAPLACIDE]
[ask] // pick min by bioavailability: A , B // output: label of the selected item
[reply] A
(A: 10%, B: 74%)

---

method.description: Unbound AUC in Balb/c mouse at 20 mg/kg, po measured upto 24 hrs by LC-MS/MS analysis
Assay type: ADME, organism-based
condition.details: in vivo
measured.property: fAUC (µmol·min/L)

Nc1ccc(C[C@@H](N)C(=O)N2CC(CNc3ccc(F)cc3)C3(C2)CN(c2cc(F)cc(F)c2)C3)cc1 (mixture of isomers) ... 2
CC1(C)c2nc(-c3ccc(F)cc3)c(Nc3ccc(F)cc3)n2CCN1C(=O)CN [GANAPLACIDE] ... 65.4
N[C@H](C(=O)N1CC(CNc2ccc(F)cc2)C2(C1)CN(c1cc(F)cc(F)c1)C2)c1ccc(O)cc1 (mixture of isomers; form 1) ... 3

[a] O=C(Cc1ccc(O)cc1)N1CC(CNc2ccccc2)C2(C1)CN(c1ccc(F)cc1)C2 (stereo not given)
[b] CS(=O)(=O)c1ccc(-c2cnc(N)c(-c3ccc(C(F)(F)F)nc3)c2)cc1
[ask] Given the listed records, identify the one among a and b with higher fAUC. // output: label of the selected item
[reply] b
(b: 4452 µmol·min/L, a: 3 µmol·min/L)

---

method.description: Half life in mouse liver microsomes at 0.1 uM in presence or absence of NADPH by LC-MS/MS analysis
Type: ADME, Microsome
measured.property: half-life at 0.1 µM (min)

Solved entries (count: 4):
O=C(Cc1cc[n+]([O-])cc1)N1CC(CNc2ccc(F)cc2)C2(C1)CN(c1cc(F)cc(F)c1)C2 (racemic) ... 150
O=C(CN1CCC(O)CC1)N1CC(CNc2ccc(F)cc2)C2(C1)CN(c1ccc(F)cc1)C2 (racemic) ... 150
C[C@H](C(=O)N1CC(CNc2ccc(F)cc2)C2(C1)CN(c1cc(F)cc(F)c1)C2)c1ccc(O)cc1 (mixture of isomers) ... 10
Nc1ccc(C[C@@H](N)C(=O)N2CC(CNc3ccc(F)cc3)C3(C2)CN(c2cc(F)cc(F)c2)C3)cc1 (mixture of isomers) ... 150

[I] O=C(Cc1ccnc(O)c1)N1CC(CNc2ccc(F)cc2)C2(C1)CN(c1cc(F)cc(F)c1)C2 (racemic)
[II] N[C@H](C(=O)N1CC(CNc2ccc(F)cc2)C2(C1)CN(c1cc(F)cc(F)c1)C2)c1ccc(O)cc1 (mixture of isomers; form 1)
[ask] // pick min by half-life at 0.1 µM: I , II // output: label of the selected item
[reply] I
(I: 17 min, II: 150 min)

---

method.description: Half life in rat liver microsomes at 0.1 uM in presence or absence of NADPH by LC-MS/MS analysis
Assay type: ADME, Microsome
measured.property: half-life at 0.1 µM (min)

O=C(Cc1ccnc(O)c1)N1CC(CNc2ccc(F)cc2)C2(C1)CN(c1cc(F)cc(F)c1)C2 (racemic) ... 20

[1] O=C(Cc1ccc(C(F)F)cc1)N1CC(CNc2ccc(F)cc2)C2(C1)CN(c1ccc(F)cc1)C2 (racemic)
[2] N[C@H](Cc1ccc(O)cc1)C(=O)N1CC(CNc2ccc(F)cc2)C2(C1)CN(c1cc(F)cc(F)c1)C2 (mixture of isomers)
[3] O=C(Cc1ccc(O)c(F)c1)N1CC(CNc2ccc(F)cc2)C2(C1)CN(c1ccc(F)cc1)C2 (racemic)
[ask] Could you please order the items by half-life at 0.1 µM, going from the lowest number to the highest? Use the labels to give the ranking in the order requested.
[reply] 1, 3, 2
(1: 7.6 min, 3: 14 min, 2: 24 min)

---

method.description: Unbound average drug concentration in Balb/c mouse at 20 mg/kg, po measured upto 24 hrs by LC-MS/MS analysis
Assay type: ADME, organism-based
condition.details: in vivo
measured.property: f(Cave) (nM)

Solved entries (count: 2):
O=C(Cc1ccc(O)cc1)N1CC(CNc2ccccc2)C2(C1)CN(c1ccc(F)cc1)C2 (centres undefined) ... 2
CS(=O)(=O)c1ccc(-c2cnc(N)c(-c3ccc(C(F)(F)F)nc3)c2)cc1 ... 3092

[I] N[C@H](C(=O)N1CC(CNc2ccc(F)cc2)C2(C1)CN(c1cc(F)cc(F)c1)C2)c1ccc(O)cc1 (mixture of isomers; form 1)
[II] CC1(C)c2nc(-c3ccc(F)cc3)c(Nc3ccc(F)cc3)n2CCN1C(=O)CN [GANAPLACIDE]
[ask] // pick min by f(Cave): I , II // output: label of the selected item
[reply] I
(I: 2 nM, II: 45 nM)
